target: Human factor XIa (Homo sapiens); construct: purchased Enzyme Research Laboratories, Inc; test: Factor XIa assay (chromogenic substrate S-2366); type: biochemical; conditions: 100 times IC50 for factor Xa divided by IC50 for factor XIa
Sequence (P03951 388-625 limits assumed): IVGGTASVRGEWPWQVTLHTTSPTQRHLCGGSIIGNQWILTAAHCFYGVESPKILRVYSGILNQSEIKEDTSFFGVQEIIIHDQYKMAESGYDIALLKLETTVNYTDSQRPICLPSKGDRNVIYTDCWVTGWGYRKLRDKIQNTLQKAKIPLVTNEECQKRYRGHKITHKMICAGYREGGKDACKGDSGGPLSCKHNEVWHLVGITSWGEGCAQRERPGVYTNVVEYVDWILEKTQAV
Sequence (P03951 19-387 partner limits assumed): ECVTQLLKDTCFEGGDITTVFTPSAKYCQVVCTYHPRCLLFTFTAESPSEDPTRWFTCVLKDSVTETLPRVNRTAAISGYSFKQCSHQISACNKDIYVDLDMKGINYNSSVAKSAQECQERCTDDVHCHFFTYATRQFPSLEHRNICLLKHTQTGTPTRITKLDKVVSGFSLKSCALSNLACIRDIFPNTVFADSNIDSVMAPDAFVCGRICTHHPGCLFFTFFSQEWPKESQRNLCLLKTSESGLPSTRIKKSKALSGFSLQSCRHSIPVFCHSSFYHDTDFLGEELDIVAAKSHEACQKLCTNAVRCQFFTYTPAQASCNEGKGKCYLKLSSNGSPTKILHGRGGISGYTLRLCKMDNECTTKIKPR
Numbered stars: 1 amine (or outer) side, 2 acyl side, 3 side chain; on linkers, the order of the positions; unused ones are H or OH. Square brackets hold non-standard residues; d marks the D form. Peptide text beside a SMILES is read from it. * marks the point of attachment. 1Nal = N[C@@H](Cc1cccc2ccccc12)C(=O)O; 2Nal = N[C@@H](Cc1ccc2ccccc2c1)C(=O)O; d2Nal = N[C@H](Cc1ccc2ccccc2c1)C(=O)O; dPhg = N[C@@H](C(=O)O)c1ccccc1; Suc = O=C(CCC(=O)[*:2])[*:1]; Boc = CC(C)(C)OC(=O)*
In this section we review reported Percent Selectivity XIa values for a set of compounds.

{"compound": "CC(C)(C)OC(=O)N[C@H](Cc1ccccc1)C(=O)N[C@@H](Cc1ccccc1)C(=O)N[C@H](C=O)CCCNC(=N)N [[4]] (Boc-[dF]-Phe-Arg-aldehyde)", "study-target": "Human factor XIa (Homo sapiens)", "relation": "=", "Percent Selectivity XIa": 0.8}
{"compound": "CC(=O)N[C@H](Cc1ccccc1)C(=O)N[C@@H](Cc1cccc2ccccc12)C(=O)N[C@H](C=O)CCCNC(=N)N [[6]] (Ac-[dF]-[1Nal]-Arg-aldehyde)", "study-target": "Human factor XIa (Homo sapiens)", "relation": "=", "Percent Selectivity XIa": 7.8}
{"compound": "CC(C)(C)OC(=O)N[C@H](Cc1ccccc1)C(=O)N1CC[C@H](c2ccccc2)[C@H]1C(=O)N[C@H](C=O)CCCNC(=N)N (relative stereo) [[10]]", "study-target": "Human factor XIa (Homo sapiens)", "relation": "<", "Percent Selectivity XIa": 2.5}
{"compound": "CC(C)(C)OC(=O)N[C@H](Cc1ccccc1)C(=O)N1CCC[C@H]1C(=O)N[C@H](C=O)CCCNC(=N)N [[23], reference compound]", "study-target": "Human factor XIa (Homo sapiens)", "relation": "=", "Percent Selectivity XIa": 317}
{"compound": "CC(C)(C)OC(=O)N[C@H](Cc1ccccc1)C(=O)N[C@@H](Cc1ccc2ccccc2c1)C(=O)N[C@H](C=O)CCCNC(=N)N [[3]] (Boc-[dF]-[2Nal]-Arg-aldehyde)", "study-target": "Human factor XIa (Homo sapiens)", "relation": "=", "Percent Selectivity XIa": 3.6}
{"compound": "CC(C)(C)OC(=O)NC(C(=O)N[C@@H](Cc1cccc2ccccc12)C(=O)N[C@H](C=O)CCCNC(=N)N)c1ccc(-c2ccccc2)cc1 (some centres unmarked) [[7]]", "study-target": "Human factor XIa (Homo sapiens)", "relation": "<", "Percent Selectivity XIa": 10}
{"compound": "CC(C)CCC(=O)N[C@H](Cc1ccccc1)C(=O)N[C@@H](Cc1cccc2ccccc12)C(=O)N[C@H](C=O)CCCNC(=N)N [[9]]", "study-target": "Human factor XIa (Homo sapiens)", "relation": "<", "Percent Selectivity XIa": 0.68}
{"compound": "N=C(N)NCCC[C@@H](C=O)NC(=O)[C@H](Cc1cccc2ccccc12)NC(=O)[C@@H](Cc1ccccc1)NC(=O)CCC(=O)O [[8]] (Suc-[dF]-[1Nal]-Arg-aldehyde)", "study-target": "Human factor XIa (Homo sapiens)", "relation": "=", "Percent Selectivity XIa": 0.12}
{"compound": "CC(C)(C)OC(=O)N[C@H](Cc1ccccc1)C(=O)N[C@@H](Cc1cccc2ccccc12)C(=O)N[C@H](C=O)CCCNC(=N)N [[5]] (Boc-[dF]-[1Nal]-Arg-aldehyde)", "study-target": "Human factor XIa (Homo sapiens)", "relation": "=", "Percent Selectivity XIa": 0.2}
{"compound": "CC(C)(C)OC(=O)N[C@@H](C(=O)N[C@@H](Cc1ccccc1)C(=O)N[C@H](C=O)CCCN=C(N)N)c1ccccc1 [[2]] (Boc-[dPhg]-Phe-Arg-aldehyde)", "study-target": "Human factor XIa (Homo sapiens)", "relation": "=", "Percent Selectivity XIa": 4.9}
{"compound": "CC(C)(C)OC(=O)N[C@H](Cc1ccc2ccccc2c1)C(=O)N[C@@H](Cc1ccccc1)C(=O)N[C@H](C=O)CCCNC(=N)N [[1]] (Boc-[d2Nal]-Phe-Arg-aldehyde)", "study-target": "Human factor XIa (Homo sapiens)", "relation": "=", "Percent Selectivity XIa": 1.4}
